From: patent US20210379035A1

- Experimental Protocol: Single-dose renal impairment PK and safety study in non-Fabry subjects (Example 1)
- Type: in vivo, human
- Test Settings: human, plasma, oral, 150 mg, Comparison to Example 1 Severe Impairment (migalastat concentration), non-Fabry, severe impairment; 24 h
Observation Type: concentration at 24 h (µg/mL)

1. OC[C@H]1NC[C@H](O)[C@@H](O)[C@H]1O [migalastat] :: 0.77

----------
- Experimental Protocol: Single-dose renal impairment PK and safety study in non-Fabry subjects (Example 1)
- Assay type: in vivo, human
- Test Settings: human, plasma, oral, 150 mg, single 150 mg migalastat HCl, non-Fabry; Severe (N = 8)
Observation Type: AUC(0-inf) (ng·h/mL)

1. OC[C@H]1NC[C@H](O)[C@@H](O)[C@H]1O [migalastat] :: 56200

----------
- Experimental Protocol: Single-dose renal impairment PK and safety study in non-Fabry subjects (Example 1)
- Type: in vivo, human
- Test Settings: human, plasma, oral, 150 mg, Comparison to Example 1 Moderate Impairment (migalastat concentration), non-Fabry, moderate impairment; 24 Hrs Post
Observation Type: concentration at 24 h

1) OC[C@H]1NC[C@H](O)[C@@H](O)[C@H]1O [migalastat] :: 0.239 µg/mL

----------
- Experimental Protocol: Single-dose renal impairment PK and safety study in non-Fabry subjects (Example 1)
- Type: in vivo, human
- Test Settings: human, plasma, oral, 150 mg, single 150 mg migalastat HCl, non-Fabry; Moderate (N = 8); read-out: C48
Observation Type: concentration at 48 h (µg/mL)

1) OC[C@H]1NC[C@H](O)[C@@H](O)[C@H]1O :: 0.0645

----------
- Experimental Protocol: Single-dose renal impairment PK and safety study in non-Fabry subjects (Example 1)
- Type: in vivo, human
- Test Settings: human, plasma, oral, 150 mg, single 150 mg migalastat HCl, non-Fabry; Severe (N = 8)
Observation Type: Tmax (h)

1) OC[C@H]1NC[C@H](O)[C@@H](O)[C@H]1O :: 4.27

----------
- Experimental Protocol: Single-dose renal impairment PK and safety study in non-Fabry subjects (Example 1)
- Type: in vivo, human
- Test Settings: human, plasma, oral, 150 mg, single 150 mg migalastat HCl, non-Fabry; Severe (N = 8); read-out: C48
Observation Type: concentration at 48 h (ng/mL)

1) OC[C@H]1NC[C@H](O)[C@@H](O)[C@H]1O :: 334

----------
- Experimental Protocol: Single-dose renal impairment PK and safety study in non-Fabry subjects (Example 1)
- Assay type: in vivo, human
- Test Settings: human, plasma, po, 150 mg, single oral 150 mg migalastat HCl; moderate renal impairment; read-out: t1/2 in plasma, arithmetic mean [min, max] (converted)
Observation Type: half-life (h)

1) OC[C@H]1NC[C@H](O)[C@@H](O)[C@H]1O [migalastat] :: 22.2

----------
- Experimental Protocol: Single-dose renal impairment PK and safety study in non-Fabry subjects (Example 1)
- Format: in vivo, human
- Test Settings: human, plasma, oral, 150 mg, single 150 mg migalastat HCl, non-Fabry; Normal (N = 8)
Observation Type: Cmax (ng/mL)

1. OC[C@H]1NC[C@H](O)[C@@H](O)[C@H]1O [migalastat] :: 2100

----------
- Experimental Protocol: Single-dose renal impairment PK and safety study in non-Fabry subjects (Example 1)
- Type: in vivo, human
- Test Settings: human, plasma, oral, 150 mg, single 150 mg migalastat HCl, non-Fabry; Mild (N = 8)
Observation Type: Cmax (ng/mL)

1) OC[C@H]1NC[C@H](O)[C@@H](O)[C@H]1O [migalastat] :: 2190

----------
- Experimental Protocol: Single-dose renal impairment PK and safety study in non-Fabry subjects (Example 1)
- Type: in vivo, human
- Test Settings: human, plasma, oral, 150 mg, single 150 mg migalastat HCl, non-Fabry; Mild (N = 8)
Observation Type: AUC(0-t) (ng·h/mL)

1. OC[C@H]1NC[C@H](O)[C@@H](O)[C@H]1O [migalastat] :: 14400

----------
- Experimental Protocol: Single-dose renal impairment PK and safety study in non-Fabry subjects (Example 1)
- Assay type: in vivo, human
- Test Settings: human, plasma, oral, 150 mg, Comparison to Example 1 Severe Impairment (migalastat concentration), non-Fabry, severe impairment; 2 h
Observation Type: concentration at 2 h (ng/mL)

1) OC[C@H]1NC[C@H](O)[C@@H](O)[C@H]1O [migalastat] :: 1550

----------
- Experimental Protocol: Single-dose renal impairment PK and safety study in non-Fabry subjects (Example 1)
- Format: in vivo, human
- Test Settings: human, plasma, oral, 150 mg, single 150 mg migalastat HCl, non-Fabry; Moderate (N = 8)
Observation Type: AUC(0-t) (ng·h/mL)

1) OC[C@H]1NC[C@H](O)[C@@H](O)[C@H]1O [migalastat] :: 22100

----------
- Experimental Protocol: Single-dose renal impairment PK and safety study in non-Fabry subjects (Example 1)
- Type: in vivo, human
- Test Settings: human, plasma, oral, 150 mg, single 150 mg migalastat HCl, non-Fabry; Normal (N = 8); read-out: t1/2 (converted)
- Description: The eGFR was estimated by the Cockcroft-Gault equation per the FDA Guidance for renal impairment studies. Volunteers were enrolled into two cohorts stratified for renal function calculated using the Cockcroft-Gault equation for creatinine clearance (CLCR). Subjects were assigned to groups based on an estimated CLCR at screening as calculated using the Cockcroft-Gault equation. […]
Observation Type: half-life (h)

1) OC[C@H]1NC[C@H](O)[C@@H](O)[C@H]1O :: 6.42

----------
- Experimental Protocol: Plasma migalastat concentration in two Fabry patients with renal impairment (Example 3)
- Type: in vivo, human
- Test Settings: human, plasma, Migalastat Conc 6 months later, Fabry patient P1, moderate renal impairment; 48 Hrs Post
- Experimental: Thus, two Fabry patients with renal impairment were evaluated. One patient (P1) had moderate renal impairment, while the other patient (P2) had severe renal impairment. […] The comparison with the results from the ERT-naïve study allows for comparison of PK in the Fabry population with mostly normal, but some mild and a few moderately impaired Fabry patients. None of the patients in the ERT-naïve study had severe renal impairment because these patients were excluded from the study.
Observation Type: concentration at 48 h

1) OC[C@H]1NC[C@H](O)[C@@H](O)[C@H]1O :: 62.4 ng/mL

----------
- Experimental Protocol: Plasma migalastat concentration in two Fabry patients with renal impairment (Example 3)
- Format: in vivo, human
- Test Settings: human, plasma, Migalastat Conc, Fabry patient P1, moderate renal impairment; 3 Hrs Post
Observation Type: concentration at 3 h (ng/mL)

1. OC[C@H]1NC[C@H](O)[C@@H](O)[C@H]1O :: 1620

----------
- Experimental Protocol: Single-dose renal impairment PK and safety study in non-Fabry subjects (Example 1)
- Assay type: in vivo, human
- Test Settings: human, plasma, oral, 150 mg, single 150 mg migalastat HCl, non-Fabry; Severe (N = 8); read-out: t1/2 (converted)
Observation Type: half-life (h)

1) OC[C@H]1NC[C@H](O)[C@@H](O)[C@H]1O :: 32.3

----------
- Experimental Protocol: Single-dose renal impairment PK and safety study in non-Fabry subjects (Example 1)
- Type: in vivo, human
- Test Settings: human, plasma, oral, 150 mg, single 150 mg migalastat HCl, non-Fabry; Normal (N = 8)
Observation Type: AUC(0-t) (ng·h/mL)

1) OC[C@H]1NC[C@H](O)[C@@H](O)[C@H]1O :: 12300

----------
- Experimental Protocol: Plasma migalastat concentration in two Fabry patients with renal impairment (Example 3)
- Type: in vivo, human
- Test Settings: human, plasma, Migalastat Conc 6 months later, Fabry patient P1, moderate renal impairment; 24 Hrs Post
Observation Type: concentration at 24 h (ng/mL)

1. OC[C@H]1NC[C@H](O)[C@@H](O)[C@H]1O :: 211

----------
- Experimental Protocol: Single-dose renal impairment PK and safety study in non-Fabry subjects (Example 1)
- Type: in vivo, human
- Test Settings: human, plasma, oral, 150 mg, single 150 mg migalastat HCl, non-Fabry; Normal (N = 8); read-out: C48
Observation Type: concentration at 48 h (ng/mL)

1) OC[C@H]1NC[C@H](O)[C@@H](O)[C@H]1O :: 5.7

----------
- Experimental Protocol: ERT-naïve study population PK from sparse blood sampling
- Type: in vivo, human
- Test Settings: human, plasma; ERT-naïve Fabry patients; 3 Hrs Post
- Description: Thus, two Fabry patients with renal impairment were evaluated. One patient (P1) had moderate renal impairment, while the other patient (P2) had severe renal impairment. […] The comparison with the results from the ERT-naïve study allows for comparison of PK in the Fabry population with mostly normal, but some mild and a few moderately impaired Fabry patients. None of the patients in the ERT-naïve study had severe renal impairment because these patients were excluded from the study.
Observation Type: concentration at 3 h (ng/mL)

1. OC[C@H]1NC[C@H](O)[C@@H](O)[C@H]1O [migalastat] :: 1180

----------
- Experimental Protocol: Plasma migalastat concentration in two Fabry patients with renal impairment (Example 3)
- Assay type: in vivo, human
- Test Settings: human, plasma, Migalastat Conc, Fabry patient P1, moderate renal impairment; 48 Hrs Post
Observation Type: concentration at 48 h (ng/mL)

1. OC[C@H]1NC[C@H](O)[C@@H](O)[C@H]1O [migalastat] :: 41.8
